System: brown planthopper (Nilaparvata lugens)
Test: Activity against the brown planthopper, dust on rice seedlings
Assay type: in vivo
Settings: topical, 10 mg per pot, resistant strain, final instar larvae, 72 hours, 25° C., read-out: Percentage mortality, Brown planthopper
What mortality at 10 mg/pot was measured for each of the following?
Please state the figure in %; there is no need to write the unit.

In: Respond only with mortality at 10 mg/pot recorded for CSCc1cc(OC(=O)N(C)C)no1
Out: 100

In: Respond only with mortality at 10 mg/pot recorded for CCSCc1cc(OC(=O)N(C)C)no1
Out: 95

In: Respond only with mortality at 10 mg/pot recorded for Cc1cc(OC(=O)N(C)C)no1 [3-Dimethylcarbamoyloxy-5-methylisoxazole, reference compound]
Out: 22

In: Respond only with mortality at 10 mg/pot recorded for CCCSCc1cc(OC(=O)N(C)C)no1
Out: 68

In: Respond only with mortality at 10 mg/pot recorded for CSCc1onc(OC(=O)N(C)C)c1Cl
Out: 100
